system: furin, P09958;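 note: purified furin at 1:10 enzyme:substrate in 50 mM HEPES pH 7.5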
Sequence (P09958 whole entry): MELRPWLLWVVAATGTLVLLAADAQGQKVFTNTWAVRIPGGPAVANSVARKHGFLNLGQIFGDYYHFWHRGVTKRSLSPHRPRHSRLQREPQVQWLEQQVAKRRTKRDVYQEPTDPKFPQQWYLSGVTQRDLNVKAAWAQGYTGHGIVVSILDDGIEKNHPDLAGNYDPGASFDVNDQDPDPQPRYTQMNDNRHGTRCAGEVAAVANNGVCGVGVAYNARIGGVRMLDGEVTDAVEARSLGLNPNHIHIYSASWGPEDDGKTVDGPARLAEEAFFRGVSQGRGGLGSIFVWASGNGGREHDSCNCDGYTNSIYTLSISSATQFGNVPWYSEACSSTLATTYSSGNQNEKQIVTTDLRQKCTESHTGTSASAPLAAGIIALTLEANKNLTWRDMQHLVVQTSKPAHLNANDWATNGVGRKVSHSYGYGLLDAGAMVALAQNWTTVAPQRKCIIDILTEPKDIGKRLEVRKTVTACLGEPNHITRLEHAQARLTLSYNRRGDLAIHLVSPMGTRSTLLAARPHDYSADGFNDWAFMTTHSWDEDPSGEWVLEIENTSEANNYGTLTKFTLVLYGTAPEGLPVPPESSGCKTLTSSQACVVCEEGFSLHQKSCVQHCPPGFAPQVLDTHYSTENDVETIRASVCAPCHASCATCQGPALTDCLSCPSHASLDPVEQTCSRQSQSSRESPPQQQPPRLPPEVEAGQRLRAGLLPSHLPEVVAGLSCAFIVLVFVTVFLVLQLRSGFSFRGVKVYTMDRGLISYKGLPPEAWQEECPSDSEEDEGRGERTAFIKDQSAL
procedure-details: furin cleavage Z-score vs untreated control; higher = more cleavage, active = 3.5 or more, inactive = 1 or less, 8 variable residues between constant flanks
measurement-conditions: 7.5 min
This is one part of the list. The true hit rate is not given.
Decision: furin cleavage Z-score >= -0.3 yields 1, all other cases yield 0.

Decide: is the reported value of furin cleavage Z-score for CAIGGRFDRQAGNASASA [FS-1012] equal to or greater than -0.3?
0

# check: furin cleavage Z-score of CASKKRSNGLAGNASASA [FS-3136] is greater than or equal to -0.3
0

Does CAEQRRRRRQAGNASASA [FS-234] have a reported furin cleavage Z-score of at least -0.3?
1

Does CAVVCVSMSYAGNASASA [HC83] have a reported furin cleavage Z-score of at least -0.3?
1

Is furin cleavage Z-score for CARGSLLSPRAGNASASA [HC735] at or above -0.3?
1

Check the entry CAVVCCSGSYAGNASASA [HC2056] : does furin cleavage Z-score equal or exceed -0.3?
0

Could you verify whether the entry CARARRGPSPAGNASASA [FS-2131] shows furin cleavage Z-score of no less than -0.3?
0

Hello, I need to know if CARMAWDMMMAGNASASA [HC319] has measured furin cleavage Z-score not below -0.3. Thanks!
0

Given the entry CAVRTRIKRSAGNASASA [FS-1179] , answer whether its furin cleavage Z-score meets or surpasses -0.3.
1

API: above_or_equal(metric=furin cleavage Z-score, cutoff=-0.3) for item CARVKRSPGLAGNASASA [FS-2387]
1

Is the recorded value of furin cleavage Z-score equal to or greater than -0.3 for this sequence? CARARRGTSGAGNASASA [FS-2646]
1

Has CAEVVTSSWVAGNASASA [HC2217] a recorded furin cleavage Z-score greater than or equal to -0.3?
1

Is reported furin cleavage Z-score greater than or equal to -0.3 here: CARARRDHFSAGNASASA [FS-2642]
1

Given the entry CAALIRKLRDAGNASASA [FS-1303] , answer whether its furin cleavage Z-score meets or surpasses -0.3.
1

Is furin cleavage Z-score for CAALARSHRDAGNASASA [FS-1183] at or above -0.3?
1

Does the sequence CARARRGGGSAGNASASA [FS-2645] have recorded furin cleavage Z-score that is -0.3 or more?
0

Determine whether this sequence has furin cleavage Z-score no lower than -0.3: CAPVRRRGDSAGNASASA [HC731]
0

Is the recorded value of furin cleavage Z-score equal to or greater than -0.3 for this sequence? CAGVVTSTWVAGNASASA [HC2156]
1

Can CAACARKFRDAGNASASA [FS-1] be said to have furin cleavage Z-score at or above -0.3?
1
